For each record, write down the corresponding IC50.
biological target: BCR-NTRK3 BaF3 cells (Homo sapiens, UniProt Q16288); construct: fused on or other part: P11274 (Breakpoint cluster region protein); assay: BaF3 BCR-NTRK3 cell proliferation assay (ATPlite); conditions: read-out: Inhibition of Cell Proliferation IC50, BCR/BaF3 TrkC
Sequence (Q16288 whole entry, the tested form may be a part): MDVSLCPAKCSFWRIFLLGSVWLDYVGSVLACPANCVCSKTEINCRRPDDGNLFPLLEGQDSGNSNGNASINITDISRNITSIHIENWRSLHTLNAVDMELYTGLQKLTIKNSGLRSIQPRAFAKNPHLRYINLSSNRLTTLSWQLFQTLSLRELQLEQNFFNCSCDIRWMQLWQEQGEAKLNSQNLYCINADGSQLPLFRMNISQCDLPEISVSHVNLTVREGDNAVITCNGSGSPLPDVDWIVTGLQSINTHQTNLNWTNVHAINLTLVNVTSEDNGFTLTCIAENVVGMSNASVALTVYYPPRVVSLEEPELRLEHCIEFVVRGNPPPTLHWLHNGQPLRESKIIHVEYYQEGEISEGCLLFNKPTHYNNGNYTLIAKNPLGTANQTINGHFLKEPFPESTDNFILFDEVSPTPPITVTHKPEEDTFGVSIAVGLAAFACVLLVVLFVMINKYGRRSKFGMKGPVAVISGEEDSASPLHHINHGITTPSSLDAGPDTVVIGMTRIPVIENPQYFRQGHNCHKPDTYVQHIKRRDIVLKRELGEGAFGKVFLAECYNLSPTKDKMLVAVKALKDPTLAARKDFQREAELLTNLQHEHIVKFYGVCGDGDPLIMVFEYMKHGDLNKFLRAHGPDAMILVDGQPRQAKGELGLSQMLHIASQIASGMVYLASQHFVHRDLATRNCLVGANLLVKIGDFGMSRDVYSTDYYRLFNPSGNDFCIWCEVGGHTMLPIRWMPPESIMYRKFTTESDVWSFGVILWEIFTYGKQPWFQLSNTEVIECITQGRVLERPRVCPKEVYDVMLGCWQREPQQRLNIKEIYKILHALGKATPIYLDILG

Which value of IC50 has been reported for CCc1ccc(Nc2ccc(C(=O)c3c[nH]c4ncnc(NCC5CC5)c34)c(F)n2)cn1 [Compound P-4118] in the records?
< 10 nM

Which value of IC50 has been reported for CCn1cc(Nc2ccc(Cc3c[nH]c4ncnc(C)c34)c(F)n2)cn1 [Compound P-4013] in the records?
< 1000 nM

Which value of IC50 has been reported for Cc1ccc(Nc2ccc(Cc3c[nH]c4ncnc(C5CC5)c34)c(F)n2)cn1 [Compound P-4030] in the records?
< 100 nM

Which value of IC50 has been reported for Cc1ccc(Nc2ccc(C(=O)c3c[nH]c4ncc(Cl)cc34)c(F)n2)cn1 [Compound P-3044] in the records?
< 100 nM

Which value of IC50 has been reported for O=C(c1ccc(NC2CCC(F)(F)CC2)nc1)c1c[nH]c2ncnc(NC3CC3)c12 [Compound P-4088] in the records?
< 10 nM

Which value of IC50 has been reported for O=C(c1ccc(NC2CCC(F)(F)CC2)nc1Cl)c1c[nH]c2ncnc(NC3CC3)c12 [Compound P-4059] in the records?
< 100 nM

Which value of IC50 has been reported for CCc1ccc(Nc2ccc(C(=O)c3c[nH]c4ncnc(C5CC5)c34)c(F)n2)cn1 [Compound P-4029] in the records?
< 10 nM

Which value of IC50 has been reported for CNc1ncnc2[nH]cc(C(=O)c3ccc(Nc4ccc(C(F)(F)F)nc4)nc3F)c12 [Compound P-4092] in the records?
< 10 nM

====

For each record, write down the corresponding IC50.
molecular target: c-Kit kinase (Homo sapiens); test: c-Kit kinase biochemical activity assay (AlphaScreen, biotin-(E4Y)10 phosphorylation); details: 100 μM ATP; read-out: Biochemical Inhibition IC50 Kit
Sequence (P10721 26-976): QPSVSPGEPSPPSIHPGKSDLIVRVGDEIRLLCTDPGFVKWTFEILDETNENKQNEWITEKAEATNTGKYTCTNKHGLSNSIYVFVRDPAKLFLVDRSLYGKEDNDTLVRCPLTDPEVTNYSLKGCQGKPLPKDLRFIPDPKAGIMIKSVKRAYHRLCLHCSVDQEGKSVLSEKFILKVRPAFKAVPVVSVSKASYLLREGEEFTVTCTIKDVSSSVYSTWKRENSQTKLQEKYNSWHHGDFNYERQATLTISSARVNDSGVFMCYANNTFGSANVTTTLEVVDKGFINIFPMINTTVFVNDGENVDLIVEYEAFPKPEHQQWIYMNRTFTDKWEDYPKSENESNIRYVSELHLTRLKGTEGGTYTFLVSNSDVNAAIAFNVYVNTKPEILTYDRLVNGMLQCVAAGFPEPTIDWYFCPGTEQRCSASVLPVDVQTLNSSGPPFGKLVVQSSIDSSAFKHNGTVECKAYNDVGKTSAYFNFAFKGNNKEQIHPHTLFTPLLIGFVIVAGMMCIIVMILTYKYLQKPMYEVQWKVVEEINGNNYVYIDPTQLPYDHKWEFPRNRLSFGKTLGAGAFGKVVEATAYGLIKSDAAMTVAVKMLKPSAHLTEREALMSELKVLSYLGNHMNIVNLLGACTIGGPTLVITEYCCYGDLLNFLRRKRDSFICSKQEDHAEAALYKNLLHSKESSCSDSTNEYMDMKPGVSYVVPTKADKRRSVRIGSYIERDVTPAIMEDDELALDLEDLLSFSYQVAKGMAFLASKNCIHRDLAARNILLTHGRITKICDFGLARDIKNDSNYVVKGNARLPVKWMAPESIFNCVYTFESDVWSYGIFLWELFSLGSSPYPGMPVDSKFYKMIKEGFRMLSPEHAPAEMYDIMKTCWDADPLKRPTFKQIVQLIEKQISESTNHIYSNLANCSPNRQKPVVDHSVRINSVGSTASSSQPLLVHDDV

Which value of IC50 has been reported for CCc1ccc(Nc2ccc(C(=O)c3c[nH]c4ncnc(NC5CCC(F)(F)CC5)c34)c(F)n2)cn1 [Compound P-4096] in the records?
< 1000 nM

Which value of IC50 has been reported for COc1ccccc1Nc1ncc(Cc2c[nH]c3ncc(Cl)cc23)cn1 [Compound P-3016] in the records?
< 100 nM

Which value of IC50 has been reported for CCNc1ncnc2[nH]cc(C(=O)c3ccc(Nc4ccc(CC)nc4)nc3F)c12 [Compound P-4123] in the records?
< 10 nM

Which value of IC50 has been reported for COc1ccc(Nc2ccc(Cc3c[nH]c4ncnc(C)c34)c(F)n2)cn1 [Compound P-4002] in the records?
< 1000 nM

Which value of IC50 has been reported for Clc1cnc2[nH]cc(Cc3cnc(NC4CCCC4)nc3)c2c1 [Compound P-3003] in the records?
> 1000 nM

Which value of IC50 has been reported for CCOc1ccc(Nc2ccc(Cc3c[nH]c4ncnc(OC)c34)c(F)n2)cn1 [Compound P-4005] in the records?
< 100 nM

Which value of IC50 has been reported for Clc1cnc2[nH]cc(Cc3cnc(NC4CCC4)nc3)c2c1 [Compound P-3007] in the records?
> 1000 nM

Which value of IC50 has been reported for CCN1CCC(Nc2ncnc3[nH]cc(C(=O)c4ccc(Nc5ccc(OC)nc5)nc4F)c23)CC1 [Compound P-4074] in the records?
< 1000 nM

====

Molecular target: BCR-FMS BaF3 cells (Homo sapiens, UniProt P07333)
Construct: fused on or other part: P11274 (Breakpoint cluster region protein)
Sequence (P07333 582-910): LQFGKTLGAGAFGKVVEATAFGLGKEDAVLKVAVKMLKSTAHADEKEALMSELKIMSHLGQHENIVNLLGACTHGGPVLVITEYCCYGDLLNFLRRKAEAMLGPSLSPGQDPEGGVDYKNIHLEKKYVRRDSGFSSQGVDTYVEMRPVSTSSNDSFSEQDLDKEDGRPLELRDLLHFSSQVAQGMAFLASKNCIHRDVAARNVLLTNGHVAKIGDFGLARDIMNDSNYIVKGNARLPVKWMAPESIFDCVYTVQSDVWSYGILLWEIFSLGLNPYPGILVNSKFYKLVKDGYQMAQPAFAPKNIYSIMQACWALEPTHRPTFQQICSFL
Test: BaF3 BCR-FMS cell proliferation assay (ATPlite)
Settings: read-out: Inhibition of Cell Proliferation IC50, BCR/BaF3 Fms
For each record, write down the corresponding IC50.

Which value of IC50 has been reported for CCc1ccc(Nc2ncc(Cc3c[nH]c4ncc(C)cc34)cn2)cc1 [Compound P-3025] in the records?
< 10 nM

Which value of IC50 has been reported for CC(C)Nc1ncnc2[nH]cc(C(=O)c3ccc(NC4CCCCC4)nc3F)c12 [Compound P-4101] in the records?
< 10 nM

Which value of IC50 has been reported for Cc1ccc(Nc2ccc(Cc3c[nH]c4ncnc(C5CC5)c34)c(F)n2)cn1 [Compound P-4030] in the records?
< 10 nM

Which value of IC50 has been reported for CNc1ncnc2[nH]cc(C(=O)c3ccc(NC4CCC(F)(F)CC4)nc3F)c12 [Compound P-4063] in the records?
< 100 nM

Which value of IC50 has been reported for CCNc1ncnc2[nH]cc(C(=O)c3cnc(NC4CCC(F)(F)CC4)c(F)c3)c12 [Compound P-4051] in the records?
< 1000 nM

Which value of IC50 has been reported for COc1ccc(Nc2ccc(C(=O)c3c[nH]c4ncnc(NCC5CC5)c34)c(F)n2)cn1 [Compound P-4067] in the records?
< 10 nM

Which value of IC50 has been reported for COCCCNc1ncnc2[nH]cc(C(=O)c3ccc(Nc4ccc(OC)nc4)nc3F)c12 [Compound P-4079] in the records?
< 100 nM

Which value of IC50 has been reported for COc1cc(Nc2ncc(Cc3c[nH]c4ncc(C)cc34)cn2)ccc1F [Compound P-3022] in the records?
< 100 nM

====

biological target: BCR-FMS BaF3 cells (Homo sapiens); construct: fused on or other part: P11274 (Breakpoint cluster region protein); experiment: BaF3 BCR-FMS cell proliferation assay (ATPlite); conditions: read-out: Inhibition of Cell Proliferation IC50, BCR/BaF3 Fms
For each record, write down the corresponding IC50.

Which value of IC50 has been reported for CCc1ccc(Nc2ccc(C(=O)c3c[nH]c4ncnc(NC5CCC(F)(F)CC5)c34)c(F)n2)cn1 [Compound P-4096] in the records?
< 10 nM

Which value of IC50 has been reported for CNc1ncnc2[nH]cc(C(=O)c3ccc(Nc4ccc(OC)nc4)nc3OC)c12 [Compound P-4085] in the records?
< 1000 nM

Which value of IC50 has been reported for CNc1ncnc2[nH]cc(C(=O)c3ccc(Nc4ccc(C(F)(F)F)nc4)nc3F)c12 [Compound P-4092] in the records?
< 10 nM

Which value of IC50 has been reported for Cc1cncc(Nc2ccc(C(=O)c3c[nH]c4ncnc(C5CC5)c34)c(F)n2)c1 [Compound P-4039] in the records?
< 100 nM

Which value of IC50 has been reported for CCc1ccc(Nc2ccc(C(=O)c3c[nH]c4ncnc(NCCCOC)c34)c(F)n2)cn1 [Compound P-4098] in the records?
< 100 nM

Which value of IC50 has been reported for Clc1ccc(Nc2ncc(Cc3c[nH]c4ncc(Cl)cc34)cn2)cc1 [Compound P-3011] in the records?
< 100 nM

Which value of IC50 has been reported for CNc1ncnc2[nH]cc(C(=O)c3cnc(NC4CCC(F)(F)CC4)c(F)c3)c12 [Compound P-4054] in the records?
< 1000 nM

Which value of IC50 has been reported for CCOc1ncnc2[nH]cc(Cc3ccc(Nc4cnn(CC)c4)nc3F)c12 [Compound P-4012] in the records?
< 10 nM

Which value of IC50 has been reported for CCN1CCC(Nc2ncnc3[nH]cc(C(=O)c4ccc(Nc5ccc(OC)nc5)nc4F)c23)CC1 [Compound P-4074] in the records?
< 1000 nM

Which value of IC50 has been reported for CCCOc1ccc(Nc2ncc(Cc3c[nH]c4ncc(C)cc34)cn2)cc1 [Compound P-3024] in the records?
< 10 nM

Which value of IC50 has been reported for O=C(c1ccc(NC2CCC(F)(F)CC2)nc1)c1c[nH]c2ncnc(NCC(F)(F)F)c12 [Compound P-4087] in the records?
< 1000 nM

Which value of IC50 has been reported for CCc1ccc(Nc2ccc(C(=O)c3c[nH]c4ncc(C)cc34)c(F)n2)cn1 [Compound P-3049] in the records?
< 10 nM

Which value of IC50 has been reported for COc1ccc(Nc2ccc(C(=O)c3c[nH]c4ncnc(NC5CCC5)c34)c(F)n2)cn1 [Compound P-4076] in the records?
< 100 nM

Which value of IC50 has been reported for O=C(c1cnc(NC2CCC(F)(F)CC2)c(F)c1)c1c[nH]c2ncnc(NCC(F)(F)F)c12 [Compound P-4052] in the records?
< 1000 nM

Which value of IC50 has been reported for Cc1cnc2[nH]cc(Cc3ccc(NC4CCCCC4)nc3F)c2c1 [Compound P-3008] in the records?
< 100 nM

Which value of IC50 has been reported for CCOc1ccc(Nc2ccc(C(=O)c3c[nH]c4ncnc(C5CC5)c34)c(F)n2)cn1 [Compound P-4027] in the records?
< 100 nM

Which value of IC50 has been reported for CCCNc1ncnc2[nH]cc(C(=O)c3ccc(Nc4cncc(OC)c4)nc3F)c12 [Compound P-4105] in the records?
< 100 nM

Which value of IC50 has been reported for O=C(c1ccc(Nc2ccc(C3CC3)nc2)nc1F)c1c[nH]c2ncnc(NCC(F)(F)F)c12 [Compound P-4090] in the records?
< 100 nM

Which value of IC50 has been reported for Cc1cnc2[nH]cc(Cc3cnc(Nc4ccc(C(C)(C)C)cc4)nc3)c2c1 [Compound P-3030] in the records?
< 10 nM

Which value of IC50 has been reported for COc1ncnc2[nH]cc(Cc3ccc(Nc4ccc(C)nc4)nc3F)c12 [Compound P-4010] in the records?
< 10 nM

Which value of IC50 has been reported for Cc1cnc2[nH]cc(C(=O)c3ccc(Nc4ccc(C)nc4)nc3F)c2c1 [Compound P-3043] in the records?
< 100 nM

Which value of IC50 has been reported for COCCOc1ncnc2[nH]cc(Cc3ccc(Nc4ccc(C)nc4)nc3F)c12 [Compound P-4015] in the records?
< 10 nM

Which value of IC50 has been reported for CNc1ncnc2[nH]cc(C(=O)c3ccc(Nc4cncc(OC)c4)nc3F)c12 [Compound P-4108] in the records?
< 100 nM

Which value of IC50 has been reported for O=C(c1ccc(Nc2ccc(C3CC3)nc2)nc1F)c1c[nH]c2ncnc(NC3CC3)c12 [Compound P-4093] in the records?
< 10 nM

Which value of IC50 has been reported for CCc1ccc(Nc2ccc(Cc3c[nH]c4ncnc(OC)c34)c(F)n2)cn1 [Compound P-4007] in the records?
< 10 nM

Which value of IC50 has been reported for CCOc1ccc(Nc2ccc(C(=O)c3c[nH]c4ncc(C)cc34)c(F)n2)cn1 [Compound P-3045] in the records?
< 100 nM

Which value of IC50 has been reported for CCOc1ccc(Nc2ccc(Cc3c[nH]c4ncnc(C5CC5)c34)c(F)n2)cn1 [Compound P-4026] in the records?
< 10 nM

Which value of IC50 has been reported for CNc1ncnc2[nH]cc(C(=O)c3ccc(NC4CCCCC4)nc3F)c12 [Compound P-4102] in the records?
< 10 nM

Which value of IC50 has been reported for CCc1ccc(Nc2ccc(C(=O)c3c[nH]c4ncnc(NCCOC)c34)c(F)n2)cn1 [Compound P-4119] in the records?
< 10 nM

Which value of IC50 has been reported for CCc1ccc(Nc2ccc(Cc3c[nH]c4ncnc(OCCOC)c34)c(F)n2)cn1 [Compound P-4016] in the records?
< 10 nM

Which value of IC50 has been reported for COc1ccc(Nc2ccc(C(=O)c3c[nH]c4ncnc(NC(C)(C)C)c34)c(F)n2)cn1 [Compound P-4055] in the records?
< 1000 nM

Which value of IC50 has been reported for Cc1ccc(Nc2ccc(C(=O)c3c[nH]c4ncnc(NCC(F)(F)F)c34)c(F)n2)cn1 [Compound P-4112] in the records?
< 100 nM
